The following molecules are shown together with reported melting point values.

Here are 3 molecules together with their reported answers.
MOLECULE	melting point
COc1cc2c(cc1OCc1ccccc1)CCCN(Cc1cc(OC)c(OC)c(OC)c1)C2 [compound 305]	44 to 46 °C
CCOc1cccc(C(=O)N2CCc3cc(O)ccc3C2)c1 [B4]	150 to 151 °C
COc1cc(OC)cc(C(=O)N2Cc3cc(OC)c(O)cc3CC2(C)C)c1 [compound 235]	163 to 166 °C

Inquiry: Fill in melting point for record COc1cc2c(cc1O)CCN(Cc1ccc(C#N)cc1)C2 [compound 65]
Reply text: 165 to 166.5 °C

Inquiry: Supply melting point value. Item: COc1cc2c(cc1OCc1ccccc1)CCN(S(=O)(=O)c1cccc(C)c1)C2 [compound 171]
Reply text: 144 to 147 °C

###

- System: DU145 cells
- PROTOCOL_DETAILS: Antiproliferative assay in DU145 cells, WST-1 cell proliferation assay, 96 hours (GI50)
- Type: cell-based
- RUN_CONDITIONS: Homo sapiens, DU-145, 96 hours post-treatment, 50% growth inhibition
- Protocol: Antiproliferative assays. DU145 cells were seeded into 96 well microtiter plates (5000 cells/well) and treated with […] of compounds or with vehicle control. At 96 hours post-treatment, live cell counts were determined by WST-1 cell proliferation assay (Roche, Penzberg, Germany), as per manufacturer's instructions. Viability results were expressed as a percentage of mean control values resulting in the calculation of the 50% growth inhibition (GI50). […]
EXPERIMENTAL_ENDPOINT: GI50

COMPOUND	EXPERIMENTAL_ENDPOINT	VALUE_OBSERVED
COc1cc2c(cc1OS(N)(=O)=O)CC(C)(C)N(Cc1cc(OC)c(OC)c(OC)c1)C2	GI50	> 100 µM
COc1cc2c(cc1O)CC(C)(C)N(C(=O)c1cc(OC)c(OC)c(OC)c1)C2	GI50	> 100 µM
COc1cc(OC)cc(C(=O)N2Cc3cc(OC)c(OS(N)(=O)=O)cc3CC2(C)C)c1	GI50	> 100 µM

Inquiry: # return GI50 for COc1cccc(CN2Cc3cc(OC)c(O)cc3CC2C)c1 (stereo not shown) , test system: DU145 cells
Reply text: < 10 µM

###

Quick list: melting point per entry.

Worked cases, answers included:
COMPOUND	EXPERIMENTAL_ENDPOINT	VALUE_OBSERVED
COc1cc2c(cc1O)CCN(S(=O)(=O)c1ccccc1OC)C2	melting point	140 to 142 °C
COc1cc2c(cc1O)CCN(Cc1cccc(NS(C)(=O)=O)c1)C2	melting point	99 to 101 °C
COc1cc2c(cc1O)C(OC)CN(Cc1cc(OC)c(OC)c(OC)c1)C2 (centres unmarked)	melting point	51 to 54 °C

Inquiry: Could you please provide reported melting point for COc1cc2c(cc1OCc1ccccc1)CCN(Cc1cccc(Oc3ccccc3)c1)C2 ? Thanks!
Reply text: 111 to 112 °C

Inquiry: Please give measured melting point of the following entry: COc1cc2c(cc1OCc1ccccc1)CCN(Cc1ccc(C#N)cc1)C2 [29A]
Reply text: 161 to 162 °C

###

EXPERIMENTAL_ENDPOINT: melting point

Some compounds with known melting point results, for comparison:
COMPOUND	melting point
COc1cc2c(cc1O)CCN(C(=O)c1cc(OC)c(OC)c(OC)c1)C2	172 to 173 °C
COc1cccc(C(=O)N2CCc3cc(OCc4ccccc4)c(OC)cc3C2=O)c1	141 to 143 °C
COc1cc2c(cc1O)CCN(Cc1cccc(OC(F)(F)F)c1)C2	122 to 124 °C

Inquiry: Dear colleague, please send me the reported melting point for COc1cccc(CN2CCc3cc(O)ccc3C2)c1OC when you can.
Reply text: 111 to 115 °C

Inquiry: Answer with the recorded melting point for the compound listed here: COc1ccc(S(=O)(=O)N2CCc3cc(O)c(OC)cc3C2=O)cc1
Reply text: 202 to 204 °C

Inquiry: Answer with the recorded melting point for the compound listed here: COc1cc2c(cc1OCc1ccccc1)CCN(Cc1cccc(NC(C)=O)c1)C2
Reply text: 63 to 66 °C

Inquiry: Give melting point for COc1cccc(CC2CCCc3cc(OCc4ccccc4)c(OC)cc3N2)c1 (stereo not drawn)
Reply text: 92 to 93 °C

Inquiry: Fill in reported melting point for this entry: COc1cc2c(cc1O)CCN(Cc1cccc(OC(C)C)c1)C2
Reply text: 143 to 146 °C

Inquiry: Hello, please tell me recorded melting point for this one: CCOc1cccc(CN2CCc3cc(O)c(OC)cc3C2)c1
Reply text: 105 to 106 °C
